Hello, the source for this data is PubChem BioAssay, in case you need it.

- Tested on: Sam68 (KHDRBS1)
- ASSAY OVERVIEW: Sam68 small-molecule binders, primary screen, biochemical, small-molecule microarray, 635 nm fluorescence (AID 1125);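 also: score merges 667 nm channel intensity with signal to noise over triplicate slides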
- CONDITION PARAMETERS: small-molecule microarray binding, higher = more signal
The following molecules are listed with their measured composite z-score values.
The answer should be written as a number, with no unit following it.

For orientation, consider the following solved cases.
MOLECULE | VALUE
O=C1O[C@H](c2ccccc2)[C@H](c2ccccc2)N2[C@H]1[C@@H](C(=O)O)[C@]1(C(=O)Nc3ccc(C#CC4(O)CCCCCC4)cc31)[C@H]2c1ccc(O)cc1 | 0.553
O=C1C[C@@](C(=O)NCC(F)(F)F)(c2ccc([N+](=O)[O-])cc2)[C@@H](c2ccc(CO)cc2)N1CC12CC3CC(CC(C3)C1)C2 | 1.29
C=C[C@@H](C)[C@@H](OC(=O)Nc1ccc(SC)cc1)c1ccc(OCCO)cc1 | 0.87
COc1ccc(C(O)C2C=CC3C(=O)N(c4ccccc4)C(=O)C3N2Nc2ccccc2)cc1 (configuration not stated) | 1.17
CC=CC(O)C1C=CC2C(=O)NC(=O)C2N1Nc1ccccn1 (configuration not stated) | 0.463
C=CCN1C(=O)[C@]2(O[C@H](CCO)[C@@H]([Si](C)(C)c3ccc(OC)cc3)[C@@H]2C)c2cc(N3C(=O)COc4ccccc43)ccc21 | 0.804

The record that follows has no composite z-score shown yet.
For O=C1OCCC=C[C@H]2OC34C=CCN(c5ccc(Cl)cc5)C(=O)[C@H]3N(CCCCCCO)C(=O)[C@@H]4C12 (some centres not stated) on Sam68 (KHDRBS1), measured composite z-score was -0.156
